Test system: ACHN renal
experimentalProtocol: NCI tumour cell line growth inhibition, 48 h; in the data active = GI50 below about 0.43 µM; inactive = the rest
Labels: class 1 (active), class 0 (inactive)

{"compound": "COc1ccc2nc(-c3ccccc3)cc(Nc3ccc(C(C)=O)cc3)c2c1", "classLabel": "class 0"}
{"compound": "N#CC1=C(N)N=C(N2CCCCC2)C(C#N)C12Nc1ccccc1S2 (stereo not given)", "classLabel": "class 0"}
{"compound": "O=C1/C(=C/c2ccc(O)c([N+](=O)[O-])c2)CCC/C1=C\\c1ccc(O)c([N+](=O)[O-])c1", "classLabel": "class 0"}
{"compound": "COc1ccc2c(c1)nc(N)c1c3cc(OC)c(OC)cc3cn21", "classLabel": "class 1"}
{"compound": "CCN1C(=O)N(CC)C2C1NN=c1s/c(=C3\\C(=O)N(CC(C)C)c4ccccc43)c(=O)n12 (stereo not given)", "classLabel": "class 0"}
